# TESTED TARGET: GSK-3β(AA 1-420) (Homo sapiens, UniProt P49841)
# Construct: GSK-3β(AA 1-420)
# Sequence (P49841 whole entry, species assumed, the tested form may be a part): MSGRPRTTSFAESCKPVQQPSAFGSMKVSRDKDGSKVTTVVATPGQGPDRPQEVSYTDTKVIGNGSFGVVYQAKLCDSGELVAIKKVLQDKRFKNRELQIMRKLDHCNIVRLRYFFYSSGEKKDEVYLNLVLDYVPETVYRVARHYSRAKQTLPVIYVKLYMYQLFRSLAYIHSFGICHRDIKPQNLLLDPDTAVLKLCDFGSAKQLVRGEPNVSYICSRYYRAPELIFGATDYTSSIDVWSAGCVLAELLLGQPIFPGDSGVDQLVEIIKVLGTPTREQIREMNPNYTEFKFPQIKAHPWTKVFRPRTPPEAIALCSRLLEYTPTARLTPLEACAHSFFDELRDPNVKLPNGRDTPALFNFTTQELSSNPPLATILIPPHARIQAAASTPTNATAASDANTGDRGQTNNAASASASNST
# ASSAY SUMMARY: GSK-3 Inhibition Assay (standard coupled enzyme system)
# Type: biochemical
# EXPERIMENTAL SETUP: 20 μM ATP, 300 μM peptide, 20 nM GSK-3β, 30° C.
Recorded Ki values for a group of compounds are listed next.
PROPERTY NAME: Ki

# COMPOUND, TESTED TARGET, PROPERTY NAME, RESULT
data = [
    ("Fc1cnc2[nH]nc(Nc3cc(N4CC(F)(C5CC5)C4)nc(-c4ccccc4Cl)n3)c2c1 [Compound I-9]", "GSK-3β(AA 1-420) (Homo sapiens, UniProt P49841)", "Ki", "< 50 nM"),
    ("Cc1cc(Nc2cc(N3CC(F)(C4CC4)C3)nc(-c3ccccc3Cl)n2)n[nH]1 [Compound I-5]", "GSK-3β(AA 1-420) (Homo sapiens, UniProt P49841)", "Ki", "50 to 500 nM"),
    ("Cc1cc(Nc2cc(C3CNC3)nc(-c3ccccc3Cl)n2)n[nH]1 [Compound I-12]", "GSK-3β(AA 1-420) (Homo sapiens, UniProt P49841)", "Ki", "50 to 500 nM"),
    ("Cc1cnc(Nc2cc(N3CCC3)nc(-c3ccccc3Cl)n2)s1 [Compound I-2]", "GSK-3β(AA 1-420) (Homo sapiens, UniProt P49841)", "Ki", "< 50 nM"),
    ("OC1(C2CC2)CN(c2cc(Nc3n[nH]c4ccc(F)cc34)nc(-c3ccccc3Cl)n2)C1 [Compound I-10]", "GSK-3β(AA 1-420) (Homo sapiens, UniProt P49841)", "Ki", "50 to 500 nM"),
    ("Cc1cc(Nc2cc(N3CC(F)(F)C3)nc(-c3ccccc3Cl)n2)n[nH]1 [Compound I-4]", "GSK-3β(AA 1-420) (Homo sapiens, UniProt P49841)", "Ki", "50 to 500 nM"),
    ("Cc1cc(Nc2cc(N3CCC3)nc(-c3ccccc3Cl)n2)n[nH]1 [Compound I-1]", "GSK-3β(AA 1-420) (Homo sapiens, UniProt P49841)", "Ki", "50 to 500 nM"),
    ("Cc1cc(Nc2cc(N3CC(O)(C(C)(C)C)C3)nc(-c3ccccc3Cl)n2)n[nH]1 [Compound I-8]", "GSK-3β(AA 1-420) (Homo sapiens, UniProt P49841)", "Ki", "1000 to 5000 nM"),
    ("Fc1cnc2[nH]nc(Nc3cc(N4CCC4)nc(-c4ccccc4Cl)n3)c2c1 [Compound I-3]", "GSK-3β(AA 1-420) (Homo sapiens, UniProt P49841)", "Ki", "< 50 nM"),
    ("OC1(C2CC2)CN(c2cc(Nc3n[nH]c4ncc(F)cc34)nc(-c3ccccc3Cl)n2)C1 [Compound I-11]", "GSK-3β(AA 1-420) (Homo sapiens, UniProt P49841)", "Ki", "< 50 nM"),
]

* * *

Recorded Ki values for a group of compounds are listed next.
# TESTED TARGET: GSK-3β(AA 1-420) (Homo sapiens)
# Construct: GSK-3β(AA 1-420)
# ASSAY SUMMARY: GSK-3 Inhibition Assay (standard coupled enzyme system)
# Assay type: biochemical
# EXPERIMENTAL SETUP: range printed with mixed units (500 nM to 1 uM); 20 μM ATP, 30° C.

# RECORD SMILES, Ki
measured = [
    ("Cc1cc(Nc2cc(N3CC(O)(C4CC4)C3)nc(-c3ccccc3Cl)n2)n[nH]1", "500 to 1000 nM"),
    ("Cc1cc(Nc2cc(N3CC(C)(O)C3)nc(-c3ccccc3Cl)n2)n[nH]1", "500 to 1000 nM"),
]
